Target: T1, HEK293/mPRLR (Mus musculus, UniProt Q08501)
T1 construct: HA; expressed in transfected cells; host or cells: HEK293
T1 sequence (Q08501 20-608): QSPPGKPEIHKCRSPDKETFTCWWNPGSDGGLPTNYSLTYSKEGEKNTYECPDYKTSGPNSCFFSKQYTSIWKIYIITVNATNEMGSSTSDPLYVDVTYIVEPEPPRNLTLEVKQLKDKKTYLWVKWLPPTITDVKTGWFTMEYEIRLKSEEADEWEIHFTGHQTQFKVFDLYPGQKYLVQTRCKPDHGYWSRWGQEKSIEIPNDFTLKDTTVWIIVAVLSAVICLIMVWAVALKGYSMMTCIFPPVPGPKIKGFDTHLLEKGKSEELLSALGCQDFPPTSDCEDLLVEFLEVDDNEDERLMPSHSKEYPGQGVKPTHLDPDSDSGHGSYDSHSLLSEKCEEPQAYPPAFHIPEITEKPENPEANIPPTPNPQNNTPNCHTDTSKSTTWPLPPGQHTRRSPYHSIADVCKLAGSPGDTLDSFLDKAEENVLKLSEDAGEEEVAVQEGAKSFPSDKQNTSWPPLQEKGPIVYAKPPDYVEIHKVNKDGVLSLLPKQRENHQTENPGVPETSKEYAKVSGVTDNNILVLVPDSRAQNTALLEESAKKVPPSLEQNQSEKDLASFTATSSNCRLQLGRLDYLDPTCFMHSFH
Test: FACS cell surface binding
Each entry below carries its reported FACS Cell Binding (Fold Above Background).
Could you give me the number in Fold Above Background? Just the number is fine.

Worked set:
molecule	data value
H1H6781P: anti-PRLR antibody, human IgG1 Fc; HCVR/LCVR SEQ ID NOs 50/58 (antibody, V domains shown, human IgG1 Fc) VH: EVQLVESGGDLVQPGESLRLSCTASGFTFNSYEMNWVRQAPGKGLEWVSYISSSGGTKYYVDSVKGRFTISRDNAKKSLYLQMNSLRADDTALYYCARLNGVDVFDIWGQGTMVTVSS VL: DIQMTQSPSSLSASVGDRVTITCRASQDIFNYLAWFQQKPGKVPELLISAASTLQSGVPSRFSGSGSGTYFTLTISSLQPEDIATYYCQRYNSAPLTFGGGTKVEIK	1
H1H6795P: anti-PRLR antibody, human IgG1 Fc; HCVR/LCVR SEQ ID NOs 162/170 (antibody, V domains shown, human IgG1 Fc) VH: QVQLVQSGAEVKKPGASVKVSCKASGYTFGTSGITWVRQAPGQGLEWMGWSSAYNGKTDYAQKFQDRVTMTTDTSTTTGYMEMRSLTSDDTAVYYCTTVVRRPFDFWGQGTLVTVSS VL: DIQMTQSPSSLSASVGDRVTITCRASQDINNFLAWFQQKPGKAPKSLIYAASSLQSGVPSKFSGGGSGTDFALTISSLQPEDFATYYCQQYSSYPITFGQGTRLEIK	1

Kindly consider the entry below.
(Q) Dear colleague, I am looking for the recorded FACS Cell Binding (Fold Above Background) of the following molecule: H1H6785P: anti-PRLR antibody, human IgG1 Fc; HCVR/LCVR SEQ ID NOs 98/106 (antibody, V domains shown, human IgG1 Fc) VH: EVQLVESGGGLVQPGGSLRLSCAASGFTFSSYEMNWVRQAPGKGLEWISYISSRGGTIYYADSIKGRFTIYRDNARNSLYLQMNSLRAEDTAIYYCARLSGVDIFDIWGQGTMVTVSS VL: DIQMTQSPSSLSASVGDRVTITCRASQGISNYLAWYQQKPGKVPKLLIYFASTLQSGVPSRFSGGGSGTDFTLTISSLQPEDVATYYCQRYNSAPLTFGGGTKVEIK
(A) 2
